Target: T1, human GIP receptor (human, UniProt P48546 22-466)
T1 sequence (looked up): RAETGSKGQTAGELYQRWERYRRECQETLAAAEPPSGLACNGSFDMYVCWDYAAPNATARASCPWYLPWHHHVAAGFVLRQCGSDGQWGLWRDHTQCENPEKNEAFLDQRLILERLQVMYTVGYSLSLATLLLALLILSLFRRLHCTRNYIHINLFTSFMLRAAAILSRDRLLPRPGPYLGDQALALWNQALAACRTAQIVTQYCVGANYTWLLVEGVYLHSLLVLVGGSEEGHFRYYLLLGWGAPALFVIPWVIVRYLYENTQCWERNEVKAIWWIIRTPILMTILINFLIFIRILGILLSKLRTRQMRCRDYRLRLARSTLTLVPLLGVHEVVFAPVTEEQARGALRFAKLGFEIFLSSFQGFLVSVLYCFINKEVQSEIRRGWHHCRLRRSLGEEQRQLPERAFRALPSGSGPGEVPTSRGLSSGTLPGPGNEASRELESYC
Test: cell-based or functional assay
Non-standard residues stand in square brackets, D forms with d. No end group written: not given here. Aib = CC(C)(N)C(=O)O
MEASURE: EC50, CreLuc assay, 0.5% hP
A bare number is not enough; add the unit after it.

Exam item: Report EC50, CreLuc assay, 0.5% hP for YXEGTFTSDYSIXLEAAKQXAFVEWLIKGGPSSGASLRHYYNWLTRQRY (Aib at 2, 13, 20; K28 side chain: C20DA-gGlu-gGlu-gGlu-gGlu-gGlu-gGlu-eLys; C-terminal NH2) [Compound 25] please.
Marked response: 0.98 nM

Exam item: Report EC50, CreLuc assay, 0.5% hP for YXEGTFTSDYSIXLEKQAQXAFVEWLIKGGPSSGASXRHYXNWLTRQRY (Aib at 2, 13, 20, 37, 41; K28 side chain: C20DA-gGlu-gGlu-Glu-gGlu-gGlu-gGlu-eLys; C-terminal NH2) [Compound 76] please.
Marked response: 0.2 nM

Exam item: Report EC50, CreLuc assay, 0.5% hP for Y[Aib]EGTFTSDYSI[Aib]LEKQAQ[Aib]AFVEWLIKGGPESPASLRHYYNWLTRQRY-NH2 (not fully specified (residue 28); also: TFA salt) [Compound 64] please.
Marked response: 0.18 nM

Exam item: Report EC50, CreLuc assay, 0.5% hP for YXEGTFTSDYSIXLEKQAQXAFVQWLIKGGPSSGVSLRHYYNWLTRQRY (Aib at 2, 13, 20; K28 side chain: C20DA-gGlu-gGlu-gGlu-gGlu-gGlu-gGlu-eLys; C-terminal NH2) [Compound 47] please.
Marked response: 0.25 nM

Exam item: Report EC50, CreLuc assay, 0.5% hP for YXEGTFTSDYSIXLEKQAQXAFVEWLIKGGPSSGASLRHYLNWLTRQRY (Aib at 2, 13, 20; K28 side chain: C20DA-gGlu-gGlu-gGlu-gGlu-gGlu-gGlu-eLys; C-terminal NH2) [Compound 86] please.
Marked response: 0.48 nM
